Recorded MIC by entry
System: Mycobacterium tuberculosis
experimental_details: Antitubercular activity against multidrug resistant Mycobacterium tuberculosis 16995 assessed as bacterial growth inhibition incubated for 7 days in 7H9 medium by alamar blue staining based microplate fluorometric analysis
Assay type: functional
condition: Mycobacterium tuberculosis, 16995, 168 h; time 7 day
observable: MIC

[[record]]
compound = "CC(C)(C)OC(=O)CNC(=O)CON=C1CCC(CN2CCN(c3nc(=O)c4cc(C(F)(F)F)cc([N+](=O)[O-])c4s3)CC2)CC1 (configuration not stated)"
tested_system = "Mycobacterium tuberculosis"
reported_measurement = "0.03 µM"

[[record]]
compound = "C[C@H](NC(=O)C(C)(C)ON=C1CCC(CN2CCN(c3nc(=O)c4cc(C(F)(F)F)cc([N+](=O)[O-])c4s3)CC2)CC1)C(=O)OC(C)(C)C (some centres not stated)"
tested_system = "Mycobacterium tuberculosis"
reported_measurement = "0.03 µM"

[[record]]
compound = "C[C@H](NC(=O)CON=C1CCC(CN2CCN(c3nc(=O)c4cc(C(F)(F)F)cc([N+](=O)[O-])c4s3)CC2)CC1)C(=O)OC(C)(C)C (some centres not stated)"
tested_system = "Mycobacterium tuberculosis"
reported_measurement = "0.167 µM"

[[record]]
compound = "O=c1nc(N2CCN(CC3CCCCC3)CC2)sc2c([N+](=O)[O-])cc(C(F)(F)F)cc12"
tested_system = "Mycobacterium tuberculosis"
reported_measurement = "< 0.035 µM"

[[record]]
compound = "CC(C)(C)OC(=O)CCON=C1CCC(CN2CCN(c3nc(=O)c4cc(C(F)(F)F)cc([N+](=O)[O-])c4s3)CC2)CC1 (configuration not stated)"
tested_system = "Mycobacterium tuberculosis"
reported_measurement = "0.068 µM"

[[record]]
compound = "O=C(O)CCON=C1CCC(CN2CCN(c3nc(=O)c4cc(C(F)(F)F)cc([N+](=O)[O-])c4s3)CC2)CC1 (configuration not stated)"
tested_system = "Mycobacterium tuberculosis"
reported_measurement = "0.221 µM"

[[record]]
compound = "CO[C@H]1/C=C/O[C@@]2(C)Oc3c(C)c(O)c4c(O)c(c(/C=N/N5CCN(C)CC5)c(O)c4c3C2=O)NC(=O)/C(C)=C\\C=C\\[C@H](C)[C@H](O)[C@@H](C)[C@@H](O)[C@@H](C)[C@H](OC(C)=O)[C@@H]1C"
tested_system = "Mycobacterium tuberculosis"
reported_measurement = "> 12.2 µM"


Every entry's value here was drawn from ChEMBL document CHEMBL6127042.
